protocolNotes: A: acetonitrile + 0.1% formic acid + 10 mM ammonium formate; B: 5% water + 95% acetonitrile + 0.1% formic acid + 10 mM ammonium formate; gradient (min/%B) 0/10 2/10 22/100 27/100 27.1/10
conditionsUsed: stereoisomer not certain
observable: LC retention time (min)

Examples with answers:
compound	LC retention time [min]
CCCCCCCCCCCCOC(=O)c1cc(O)c(O)c(O)c1 [Lauryl gallate]	0.455
CC(=O)C1CCC2C3CCC4=CC(=O)CCC4(C)C3CCC12C (stereo not given) [Progesterone]	0.425

A. O=c1cc(-c2ccc(O)c(O)c2)oc2cc(O)cc(O)c12 [Luteolin]
B. O=C(CO)COP(=O)(O)O [Dihydroxyacetone phosphate]
C. COc1ccc(C2CC(=O)c3c(O)cc(OC4OC(COC5OC(C)C(O)C(O)C5O)C(O)C(O)C4O)cc3O2)cc1O (stereo not given) [Hesperidin]
Put the items in sequence by LC retention time, from largest down. When ranking, write the labels in the order the request describes. B, C, A

---

protocolNotes: A: acetonitrile + 0.1% formic acid + 10 mM ammonium formate; B: 5% water + 95% acetonitrile + 0.1% formic acid + 10 mM ammonium formate; gradient (min/%B) 0/10 2/10 22/100 27/100 27.1/10
conditionsUsed: stereoisomer not certain
observable: LC retention time (min)

A. O=C(O)CN(CCO)CCO
B. CC(C)(C)NCC(O)c1ccc(O)c(CO)c1 (stereo not given)
Between the entries labelled A and B , which has a larger LC retention time value on record? Reply with the label of the item you choose. A

P. O=c1ccn(C2OC(COP(=O)(O)OP(=O)(O)O)C(O)C2O)c(=O)[nH]1 (stereo not given) [Uridine 5'-diphosphate]
Q. NC(=O)NCCC(=O)O
Kindly compare P with Q and tell me which has the lower LC retention time figure. Reply with the label of the item you choose. Q
(Q: 4.57 min, P: 8.14 min)

1. Nc1nc2ncc(CNc3ccc(C(=O)NC(CCC(=O)O)C(=O)O)cc3)nc2c(=O)[nH]1 (stereo not given)
2. CCCOC(=O)c1cc(O)c(O)c(O)c1 [Propyl gallate]
Between the entries labelled 1 and 2 , which has a larger LC retention time value on record? Reply with the label of the item you choose. 1
(1: 5.87 min, 2: 0.478 min)

---

protocolNotes: A: acetonitrile + 0.1% formic acid + 10 mM ammonium formate; B: 5% water + 95% acetonitrile + 0.1% formic acid + 10 mM ammonium formate; gradient (min/%B) 0/10 2/10 22/100 27/100 27.1/10
conditionsUsed: stereoisomer not certain
observable: LC retention time (min)

compound	unitAbbrev	LC retention time
CCCC(=O)OCC(COC(=O)CCC)OC(=O)CCC [Glycerol Tributyrate]	min	0.412

I. CC(=O)N[C@@H](CC(C)C)C(=O)O
II. CSCC[C@H](N)C(=O)O
Kindly compare I with II and tell me which has the lower LC retention time figure. Reply with the label of the item you choose. I
(I: 1.18 min, II: 5.97 min)

---

protocolNotes: A: acetonitrile + 0.1% formic acid + 10 mM ammonium formate; B: 5% water + 95% acetonitrile + 0.1% formic acid + 10 mM ammonium formate; gradient (min/%B) 0/10 2/10 22/100 27/100 27.1/10
conditionsUsed: stereoisomer not certain
observable: LC retention time (min)

Examples with answers:
compound	quantitativeResult
COc1cc(C2Oc3cc(C4Oc5cc(O)cc(O)c5C(=O)C4O)ccc3OC2CO)ccc1O (configuration not stated)	0.474
CN[C@H](CC(=O)O)C(=O)O	7.02
CC12CC3CC(C)(C1)CC(N)(C3)C2 [Memantine]	1.94
O=C1CCc2ccc(OCCCCN3CCN(c4cccc(Cl)c4Cl)CC3)cc2N1	1.25
O=c1[nH]cnc2nc[nH]c12	2.29

P. CC12CCC(=O)C=C1CCC1C2C(O)CC2(C)C(C(=O)CO)CCC12 (configuration not stated)
Q. CC(=O)NCCCC(=O)O
Kindly compare P with Q and tell me which has the lower LC retention time figure. Reply with the label of the item you choose. P

---

protocolNotes: A: acetonitrile + 0.1% formic acid + 10 mM ammonium formate; B: 5% water + 95% acetonitrile + 0.1% formic acid + 10 mM ammonium formate; gradient (min/%B) 0/10 2/10 22/100 27/100 27.1/10
conditionsUsed: stereoisomer not certain
observable: LC retention time (min)

Examples with answers:
compound	quantitativeResult
CCN(CC)CCCC(C)Nc1c2ccc(Cl)cc2nc2ccc(OC)cc12 (stereo unspecified)	3.99
N#CC(OC1OC(COC2OC(CO)C(O)C(O)C2O)C(O)C(O)C1O)c1ccccc1 (stereo unspecified)	4.24
O=c1[nH]cnc2[nH]ncc12	0.996
NC(CCCC(=O)O)C(=O)O (stereo unspecified)	6.5
NC(=O)NC1NC(=O)NC1=O (stereo unspecified)	3.1

1. O=C(O)C=CCCCCCCCCC(=O)O
2. O=C(CO)[C@@H](O)[C@H](O)[C@H](O)COP(=O)(O)O [D-Fructose-6-phosphate]
3. NC(Cc1cc(I)c(Oc2ccc(O)c(I)c2)c(I)c1)C(=O)O (stereo unspecified)
4. CCCCCCCC(=O)NCC(=O)O
Reorder the items by LC retention time, least to greatest. When ranking, write the labels in the order the request describes. 1, 4, 3, 2

---

protocolNotes: A: acetonitrile + 0.1% formic acid + 10 mM ammonium formate; B: 5% water + 95% acetonitrile + 0.1% formic acid + 10 mM ammonium formate; gradient (min/%B) 0/10 2/10 22/100 27/100 27.1/10
conditionsUsed: stereoisomer not certain
observable: LC retention time (min)

Examples with answers:
compound	LC retention time (min)
COc1cc(C=CC(=O)CC(=O)C=Cc2ccc(O)c(OC)c2)ccc1O	0.431
O=c1ccc2cc(OC3OC(CO)C(O)C(O)C3O)c(O)cc2o1 (configuration not stated)	2.52
O=c1cc(-c2ccccc2)oc2ccccc12	0.425

1. C=C(C)C1CCC2=CC(=O)CC(C)C2(C)C1 (single isomer, unassigned; (+)) [(+)-Nootkatone]
2. NCCCCN=C(N)N
Between the entries labelled 1 and 2 , which has a larger LC retention time value on record? Reply with the label of the item you choose. 2

A. Fc1ccc(C2CCNCC2COc2ccc3c(c2)OCO3)cc1 (configuration not stated)
B. NCC(=O)N[C@@H](Cc1ccc(O)cc1)C(=O)O
C. Nc1nc2c(ncn2C2OC(COP(=O)(O)OP(=O)(O)O)C(O)C2O)c(=O)[nH]1 (configuration not stated) [Guanosine 5'-diphosphate]
D. COc1cccc(OC)c1C(=O)O
Reorder the items by LC retention time, least to greatest. When ranking, write the labels in the order the request describes. D, A, B, C
(D: 0.628 min, A: 1.19 min, B: 5.97 min, C: 9.21 min)

A. NC(N)=NCCCC(=O)O
B. CC(C)NCC(O)COc1ccc(CC(N)=O)cc1 (configuration not stated)
Kindly compare A with B and tell me which has the lower LC retention time figure. Reply with the label of the item you choose. B

---

protocolNotes: A: acetonitrile + 0.1% formic acid + 10 mM ammonium formate; B: 5% water + 95% acetonitrile + 0.1% formic acid + 10 mM ammonium formate; gradient (min/%B) 0/10 2/10 22/100 27/100 27.1/10
conditionsUsed: stereoisomer not certain
observable: LC retention time (min)

Examples with answers:
compound	LC retention time (min)
CC(CCC(=O)NCCS(=O)(=O)O)C1CCC2C3CCC4CC(O)CCC4(C)C3CC(O)C12C (configuration not stated)	2.71
NC(=O)c1ncn(C2OC(CO)C(O)C2O)n1 (configuration not stated)	3.11

1. O=C(O)c1ccccn1
2. CC(=O)Oc1cc(C)c(OC(C)=O)c2ccccc12
3. OCC1OC(OC2C(CO)OC(OC3C(CO)OC(O)C(O)C3O)C(O)C2O)C(O)C(O)C1O (configuration not stated)
4. O=C(O)CNC(=O)c1ccccc1
Put the items in sequence by LC retention time, from largest down. When ranking, write the labels in the order the request describes. 3, 1, 4, 2

a. NCCc1ccc(O)c(O)c1
b. CC12CCC(=O)C=C1CCC1C2CCC2(C)C1CCC2(O)C(=O)CO (configuration not stated) [Cortexolone]
Between the entries labelled a and b , which has a larger LC retention time value on record? Reply with the label of the item you choose. a
(a: 4.22 min, b: 0.459 min)

P. O=c1[nH]cnc2c1ncn2C1OC(CO)C(O)C1O (configuration not stated)
Q. CC(=O)NC(CCC(N)=O)C(=O)O (configuration not stated)
R. CC12C=CC(=O)C=C1CCC1C3CC(O)C(O)(C(=O)CO)C3(C)CC(O)C12F (configuration not stated)
Reorder the items by LC retention time, least to greatest. When ranking, write the labels in the order the request describes. R, P, Q

---

protocolNotes: A: acetonitrile + 0.1% formic acid + 10 mM ammonium formate; B: 5% water + 95% acetonitrile + 0.1% formic acid + 10 mM ammonium formate; gradient (min/%B) 0/10 2/10 22/100 27/100 27.1/10
conditionsUsed: stereoisomer not certain
observable: LC retention time (min)

Examples with answers:
molecule	LC retention time (min)
O=C(O)CNC(=O)c1cccc(O)c1 [m-Hydroxyhippuric Acid]	3.46
O=C(O)Cc1cnc[nH]1	6.1
Cc1ccccc1C(=O)NCC(=O)O	3.28

a. CN(C)C(=N)N=C(N)N
b. NCCOP(=O)(O)O
c. O=C(c1ccccc1)c1ccc2n1CCC2C(=O)O (stereo unspecified)
Put the items in sequence by LC retention time, from largest down. When ranking, write the labels in the order the request describes. b, a, c
